Tested on: COLO205
Experiment: Sulforhodamine B (SRB) growth inhibition assay
Assay type: cell-based, Human
Settings: COLO205; SRB assay, cells exposed for 24 h; read-out: GI50 values (μM) COLO205
I'd be grateful if you could share measured GI50 for these entries.
Provide only the numeric value, understood in µM.

Please fill in: GI50 reported for COCCOCCOCCOP(=O)(O)OC[C@H]1O[C@@H](n2cc(F)c(=O)[nH]c2=O)C[C@@H]1O = 1.8

Please fill in: GI50 reported for COCCOCCOCCOCCOCCOCCOCCOP(=O)(O)OC[C@H]1O[C@@H](n2ccc(N)nc2=O)C(F)(F)[C@@H]1O.Cl [Gemcitabine Mono (mPEG7), phosphate hydrochloride] = 0.18

Please fill in: GI50 reported for COCCOCCOCCOP(=O)(O)OC[C@H]1O[C@@H](n2ccc(N)nc2=O)C(F)(F)[C@@H]1O.Cl [Gemcitabine Mono (mPEG3), phosphate hydrochloride] = 0.16

Please fill in: GI50 reported for COCCOCCOCCOCCOCCOCCOCCOP(=O)(O)OC[C@H]1O[C@@H](n2cc(F)c(=O)[nH]c2=O)C[C@@H]1O = 1.9
